Provenance of the data: PubChem BioAssay AID504753

Test system: glucose-6-phosphate dehydrogenase-6-phosphogluconolactonase (PfGluPho), Plasmodium falciparum 3D7
Assay: malaria parasite PfGluPho enzyme inhibition – biochemical, fluorescence intensity, single concentration, confirmation (AID 504753)
Conditions: recombinant PfGluPho, NADPH-diaphorase-resazurin fluorescence; at 20 µM
The whole screen tested about 2,400 compounds, of which about 820 (34%) were called active.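 The calls were made as follows: active = inhibition of at least 50% at 20 µM in any single replicate; inactive = the rest.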 Only a sample is shown.
Pick from active, inactive when you respond.

Example entries begin here.
molecule	cat
O=C(Nc1nnc(S(=O)(=O)N2CCCCCC2)s1)c1cccc(Br)c1	active
COc1ccc(-c2nn(-c3ccccc3)cc2/C=N/Nc2ccccn2)cc1OC	inactive

Attention now turns to another entry.
(Q) Recorded test outcome, item `O=C(CSc1cccc2cccnc12)N/N=C/c1cccnc1`
(A) inactive
